These records show IC50 for EGFR (UniProt P00533).

smiles.representation	IC50
COc1ccc(OC)c(S(=O)(=O)Nc2ncnc3cc(OCCN4CCN(C)CC4)c(OC)cc23)c1	≤ 1 µM
CCN(CC)CCOc1cc2ncnc(NS(=O)(=O)c3c(C)noc3C)c2cc1OC	≤ 1 µM
CCN(CC)CCOc1cc2ncnc(NS(=O)(=O)c3ccc(Cl)cc3)c2cc1OC	≤ 1 µM
COc1ccc(OC)c(S(=O)(=O)Nc2ncnc3cc(OCCCN(C)C)c(OC)cc23)c1	≤ 1 µM
COc1ccc(S(=O)(=O)Nc2ncnc3cc(OCCN4CCOCC4)c(OC)cc23)cc1OC	≤ 1 µM
COc1cc2c(NS(=O)(=O)c3ccc(Sc4cccs4)s3)ncnc2cc1OCCN1CCOCC1	≤ 1 µM
CCN(CC)CCOc1cc2ncnc(NS(=O)(=O)c3ccc(C(C)(C)C)cc3)c2cc1OC	≤ 1 µM
CCN(CC)CCOc1cc2ncnc(NS(=O)(=O)c3cccc(Br)c3)c2cc1OC	≤ 1 µM

Now take the following compound into account.
The measured IC50 associated with `COc1ccc(S(=O)(=O)Nc2ncnc3cc(OCCN4CCOCC4)c(OC)cc23)cc1` reads ≤ 1 µM
